The origin of these recorded values is patent US9815842B2.

Parameter pIC50, tested on C-domain of MALT1 (amino acids 329-824) (Homo sapiens (Human)), listed per item.
Sequence (Q9UDY8 329-824): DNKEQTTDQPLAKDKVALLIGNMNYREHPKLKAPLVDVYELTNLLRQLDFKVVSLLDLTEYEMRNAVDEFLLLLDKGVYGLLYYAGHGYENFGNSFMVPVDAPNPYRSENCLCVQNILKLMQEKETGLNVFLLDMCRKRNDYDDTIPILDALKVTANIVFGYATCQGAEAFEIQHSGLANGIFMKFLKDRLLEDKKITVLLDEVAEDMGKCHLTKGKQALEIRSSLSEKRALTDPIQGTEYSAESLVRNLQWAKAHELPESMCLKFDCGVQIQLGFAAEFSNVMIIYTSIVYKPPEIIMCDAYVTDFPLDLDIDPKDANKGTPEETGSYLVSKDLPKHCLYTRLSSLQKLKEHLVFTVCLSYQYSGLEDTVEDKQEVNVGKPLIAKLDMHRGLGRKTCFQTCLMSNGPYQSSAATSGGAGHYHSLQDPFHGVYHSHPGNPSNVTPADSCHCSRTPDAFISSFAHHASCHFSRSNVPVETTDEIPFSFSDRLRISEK
pIC50: −log10 of the molar value.
recorded.endpoint: pIC50

> print(dat)
                           substance.smiles  recorded.endpoint  observed.result
1  C[C@H](OC[C@@H]1CCOC1)c1c(NC(=O)Nc2cnc(-n3nccn3)c(Cl)c2)cnc2cc(Cl)nn12              pIC50             8.30
2  CC(C)c1c(NC(=O)Nc2cc(Cl)c(-n3nccn3)c(Cl)c2)cnc2cc(Cl)nn12              pIC50             8.52
3  COCC1(c2c(NC(=O)Nc3cnc(-n4nccn4)c(Cl)c3)cnc3cc(Cl)nn23)CC1              pIC50             8.22
4  C[C@H](OC[C@H]1CCOC1)c1c(NC(=O)Nc2cnc(-n3nccn3)c(Cl)c2)cnc2cc(Cl)nn12              pIC50             8.52
5  COC[C@H](C)c1c(NC(=O)Nc2cnc(-n3nccn3)c(C(F)(F)F)c2)cnc2cc(Cl)nn12              pIC50             8.52
6  CO[C@H](c1c(NC(=O)Nc2cnc(-n3nccn3)c(Cl)c2)cnc2cc(Cl)nn12)C(C)C              pIC50             8.70
7  C[C@H](O[C@@H]1CCOC1)c1c(NC(=O)Nc2cnc(-n3nccn3)c(Cl)c2)cnc2cc(Cl)nn12              pIC50             7.72
